system name: Soluble guanylate cyclase alpha1/beta1 complex (Homo sapiens) (UniProt Q02153+Q02108)
experiment summary: Binding affinity to sGC subunit alpha-1/beta-1 catalytic domain (unknown origin) assessed as occupancy relative to control
Type: protein-complex assay
Provide the reported Occ of each item.

Solved entries:
CC(=O)n1nc(-c2nc(CN)no2)c2ccccc21; 20%
NCc1noc(-c2c3ccccc3nn2Cc2ccc3c(c2)OCO3)n1; 96%
NCc1noc(-c2c3ccccc3nn2Cc2cccc(Cl)c2)n1; 94%

Prompt: Can you share its Occ? I mean this compound: COc1ccc(Cn2nc(-c3nc(CN)no3)c3ccccc32)cc1
Completion: 21%

Hey, just so you know, these numbers are from ChEMBL document CHEMBL3112547.
